B1: NFE2L1 (parent)
chain: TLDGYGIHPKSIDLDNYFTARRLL

- Variants of: B1
- assayNotes: protein stability index of a GFP-peptide fusion (GPS, HEK-293T) (PSI 1-6); higher = more stable;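 also: lentivirally expressed fusions sorted by FACS into six bins by GFP to DsRed ratio, PSI derived from sequencing read proportions per bin multiplied by bin number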
- assaySetup: c terminus: a fixed tail appended
The label depends only on protein stability index: Criterion met if it is at least 2, Criterion not met if it is smaller.

Observe how each entry below is paired with its result.
P9L :: Criterion met
D15N :: Criterion met
Y5P :: Criterion met

Moving on to another variant below.
Evaluate D13E : protein stability index at minimum 2?
Criterion met
